Task for the reader: assign each of the following compounds its reported dTm.
Target: ~100 representative kinases (Homo sapiens)
Construct: Recombinant protein kinase domains with a concentration of 2 μM
Experiment: DSF 100 kinase selectivity screen;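 on dTm: compound tested at 20 µM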
Type: binding
Settings: protein MAPK14; average of three replicates
Numbers only, in K.

# example entries with known answers
O=C(Nc1cccc(-c2c[nH]c3ncnc(N4CCOCC4)c23)c1)C1(C(=O)Nc2ccc(F)c(Br)c2F)CC1 [Compound 26]    2.01
Cc1cc(NC(=O)C2(C(=O)Nc3cccc(-c4c[nH]c5ncnc(N6CCOCC6)c45)c3)CC2)ccc1F [Compound 20]    1.97

Here's the next entry for you.
What value of dTm has been recorded for this entry: O=C(Nc1cccc(-c2c[nH]c3ncnc(N4CCOCC4)c23)c1)C1(C(=O)Nc2cc(Br)c(F)cc2F)CC1 [Compound 25]
2.03

* * *

Target: ~100 representative kinases (Homo sapiens)
Construct: Recombinant protein kinase domains with a concentration of 2 μM
Experiment: DSF 100 kinase selectivity screen;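 on dTm: compound tested at 20 µM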
Assay type: binding
Settings: protein MAPK15; average of three replicates
The label Y is reserved for dTm strictly under 6 K; N covers values equal to or above it.

CCSc1nc(NC)c2c(-c3cccc(NC(=O)Nc4cc(C(C)(C)C)nn4-c4ccc(C)cc4)c3)c[nH]c2n1    Y
COc1ccc(NC(=O)C2(C(=O)Nc3cccc(-c4c[nH]c5ncnc(N6CCOCC6)c45)c3)CC2)cc1    Y
O=C(Nc1cccc(-c2c[nH]c3ncnc(N4CCOCC4)c23)c1)C1(C(=O)Nc2ccc(F)c(Br)c2F)CC1    Y
COc1cc(S(C)(=O)=O)ccc1Nc1nc(N(C)C)c2c(Cl)c[nH]c2n1    Y

Find out if reported dTm for `Cc1ccc(NC(=O)C2(C(=O)Nc3cccc(-c4c[nH]c5ncnc(N6CCOCC6)c45)c3)CC2)cc1` is less than 6 K
Y

Find out if reported dTm for `CC(=O)N1CCN(c2nc(Cl)nc3[nH]cc(-c4cccc(NC(=O)Nc5cc(C(C)(C)C)nn5-c5ccc(C)cc5)c4)c23)CC1` is less than 6 K
N

Find out if reported dTm for `Cc1cc(NC(=O)C2(C(=O)Nc3cccc(-c4c[nH]c5ncnc(N6CCOCC6)c45)c3)CC2)ccc1F` is less than 6 K
N

Find out if reported dTm for CNC(=O)c1cc(Oc2ccc(NC(=O)Nc3cc(C(C)(C)C)nn3-c3ccc4ncccc4c3)c(F)c2)ccn1 [Rebastinib, reference compound] is less than 6 K
N

Find out if reported dTm for `Cc1ccc(-n2nc(C(C)(C)C)cc2NC(=O)Nc2cccc(-c3c[nH]c4ncnc(N5CCOCC5)c34)c2)cc1` is less than 6 K
N

Find out if reported dTm for `O=C(Nc1cccc(-c2c[nH]c3ncnc(N4CCOCC4)c23)c1)C1(C(=O)Nc2ccc(F)c(Cl)c2)CC1` is less than 6 K
N

Find out if reported dTm for `CC(C)(C)c1cccc(NC(=O)C2(C(=O)Nc3cccc(-c4c[nH]c5ncnc(N6CCOCC6)c45)c3)CC2)c1` is less than 6 K
N

Find out if reported dTm for `COc1cc(C(=O)N2CCOCC2)c(F)cc1Nc1nc(N(C)C)c2c(Cl)c[nH]c2n1` is less than 6 K
Y

Find out if reported dTm for `O=C(Nc1cccc(-c2c[nH]c3ncnc(N4CCOCC4)c23)c1)c1cccn(-c2ccc(F)cc2)c1=O` is less than 6 K
N

Find out if reported dTm for `O=C(Nc1ccc(F)cc1)C1(C(=O)Nc2cccc(-c3c[nH]c4ncnc(N5CCOCC5)c34)c2)CC1` is less than 6 K
N

Find out if reported dTm for COc1cc2c(Oc3ccc(NC(=O)C4(C(=O)Nc5ccc(F)cc5)CC4)cc3F)ccnc2cc1OCCCN1CCOCC1 [Foretinib, reference compound] is less than 6 K
N

Find out if reported dTm for `O=C(Nc1cccc(-c2c[nH]c3ncnc(N4CCOCC4)c23)c1)C1(C(=O)Nc2ccc(F)c(Br)c2)CC1` is less than 6 K
N

Find out if reported dTm for `Cc1cc(F)ccc1NC(=O)C1(C(=O)Nc2cccc(-c3c[nH]c4ncnc(N5CCOCC5)c34)c2)CC1` is less than 6 K
Y

Find out if reported dTm for `O=C(Nc1cccc(-c2c[nH]c3ncnc(N4CCOCC4)c23)c1)C1(C(=O)Nc2cccc3c2CCC3)CC1` is less than 6 K
Y

Find out if reported dTm for `Cc1ccc(C(=O)Nc2ccc(CN3CCN(C)CC3)c(C(F)(F)F)c2)cc1C#Cc1c[nH]c2ncnc(N3CCOCC3)c12` is less than 6 K
N

* * *

System: ~100 representative kinases
Assay: DSF 100 kinase selectivity screen
Format: binding
Conditions: selectivity score: # >5K divided by # of proteins tested in the DSF panel
Description: Recombinant protein kinase domains with a concentration of 2 μM were mixed with a 20 μM compound solution in dimethyl sulfoxide (DMSO), 20 mM Hepes (pH 7.5), and 500 mM NaCl. SYPRO Orange (5000×, Invitrogen) was added as a fluorescence probe (1μl/ml). Subsequently, temperature-dependent protein unfolding profiles were measured using the QuantStudio 5 realtime PCR machine (Thermo Fisher Scientific, Waltham, MA, USA). […] The temperature was raised with a step rate of 3°C/min. […]
Result Type: S(5K)

Dear colleague, could you send me S(5K) for each of the items below? Thanks.
1. O=C(Nc1cccc(-c2c[nH]c3ncnc(N4CCOCC4)c23)c1)C1(C(=O)Nc2cccc3c2CCC3)CC1 [Compound 11]
2. Cc1ccc(C(=O)Nc2ccc(CN3CCN(C)CC3)c(C(F)(F)F)c2)cc1C#Cc1c[nH]c2ncnc(N3CCOCC3)c12 [Compound 1]
3. COc1cc(NC(=O)C2(C(=O)Nc3cccc(-c4c[nH]c5ncnc(N6CCOCC6)c45)c3)CC2)ccc1F [Compound 21]

1: 0.154; 2: 0.200; 3: 0.280

* * *

Target: ~100 representative kinases (Homo sapiens, UniProt O96017)
Construct: Recombinant protein kinase domains with a concentration of 2 μM
Sequence (O96017 whole entry, the tested form may be a part): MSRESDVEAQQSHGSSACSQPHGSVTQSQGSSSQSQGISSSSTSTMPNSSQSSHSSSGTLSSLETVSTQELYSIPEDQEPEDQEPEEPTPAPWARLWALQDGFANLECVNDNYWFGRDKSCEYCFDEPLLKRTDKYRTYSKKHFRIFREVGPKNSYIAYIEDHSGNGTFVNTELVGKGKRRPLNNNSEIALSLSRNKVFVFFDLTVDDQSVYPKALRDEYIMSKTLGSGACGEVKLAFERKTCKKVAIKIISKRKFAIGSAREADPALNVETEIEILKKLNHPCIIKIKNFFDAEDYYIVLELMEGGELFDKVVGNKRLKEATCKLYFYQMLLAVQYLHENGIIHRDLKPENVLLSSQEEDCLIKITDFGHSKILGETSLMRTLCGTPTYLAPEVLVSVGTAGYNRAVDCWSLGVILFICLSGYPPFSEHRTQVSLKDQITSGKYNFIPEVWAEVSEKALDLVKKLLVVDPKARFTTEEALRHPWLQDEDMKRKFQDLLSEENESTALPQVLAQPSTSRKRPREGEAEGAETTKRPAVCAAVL
Assay: DSF 100 kinase selectivity screen;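 on dTm: compound tested at 20 µM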
Type: binding
Settings: Protein CHEK2; average of three replicates
Result Type: dTm (K)
Numbers only, in K.

# example entries with known answers
COc1cc2c(Oc3ccc(NC(=O)C4(C(=O)Nc5ccc(F)cc5)CC4)cc3F)ccnc2cc1OCCCN1CCOCC1 [Foretinib, reference compound]    18.83
O=C(Nc1cccc(-c2c[nH]c3ncnc(N4CCOCC4)c23)c1)C1(C(=O)Nc2ccc(F)cc2F)CC1    3.32
Cc1cc(F)ccc1NC(=O)C1(C(=O)Nc2cccc(-c3c[nH]c4ncnc(N5CCOCC5)c34)c2)CC1    2.66

What value of dTm has been recorded for this entry: `O=C(Nc1ccc(F)cc1)C1(C(=O)Nc2cccc(-c3c[nH]c4ncnc(N5CCOCC5)c34)c2)CC1`
4.13

* * *

Biological target: LRRK2^KW (Homo sapiens)
Construct: LRRK2 R1847 to E2527; His6-Z-tag (TEV cleavable) (N, cleaved yes); host or cells: Sf9 insect cells (baculovirus)
Sequence (Q5S007 1847-2527): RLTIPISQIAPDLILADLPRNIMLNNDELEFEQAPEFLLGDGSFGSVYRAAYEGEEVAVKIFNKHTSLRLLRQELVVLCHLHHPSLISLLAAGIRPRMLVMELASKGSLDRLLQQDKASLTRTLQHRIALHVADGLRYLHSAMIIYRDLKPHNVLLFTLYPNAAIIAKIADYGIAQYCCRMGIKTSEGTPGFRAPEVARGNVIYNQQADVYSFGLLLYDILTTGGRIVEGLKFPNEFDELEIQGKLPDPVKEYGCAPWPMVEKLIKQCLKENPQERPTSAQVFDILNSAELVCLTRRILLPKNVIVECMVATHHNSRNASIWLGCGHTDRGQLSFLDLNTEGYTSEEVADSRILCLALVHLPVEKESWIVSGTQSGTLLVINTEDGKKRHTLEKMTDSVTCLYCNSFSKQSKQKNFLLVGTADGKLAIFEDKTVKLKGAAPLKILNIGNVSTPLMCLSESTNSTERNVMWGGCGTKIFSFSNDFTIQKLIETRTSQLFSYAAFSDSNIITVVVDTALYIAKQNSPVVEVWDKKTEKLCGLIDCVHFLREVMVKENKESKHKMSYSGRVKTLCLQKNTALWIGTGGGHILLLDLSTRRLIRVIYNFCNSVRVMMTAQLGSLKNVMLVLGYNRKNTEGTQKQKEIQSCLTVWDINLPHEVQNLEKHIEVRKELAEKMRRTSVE
Experiment: DSF thermal stabilization of LRRK2^KW
Type: binding
Settings: screen of 31 type-II inhibitors, Table S1
Result Type: dTm LRRK2(KW) [K] (K)
Give bare numbers, in K.

# example entries with known answers
Cc1ccc(NC(=O)c2cccc(C(C)(C)C#N)c2)cc1Nc1ccc2ncn(C)c(=O)c2c1 [AZ 628, reference compound]    -0.5
CCN1CCN(Cc2ccc(NC(=O)Nc3ccc(Oc4cc(NC)ncn4)cc3)cc2C(F)(F)F)CC1 [AST-487, reference compound]    10

Dear colleague, could you send me dTm LRRK2(KW) [K] for each of the items below? Thanks.
1. Cc1ccc(F)c(NC(=O)Nc2ccc(-c3cccc4[nH]nc(N)c34)cc2)c1 [Linifanib, reference compound]
2. N#CC1(c2ccc(NC(=O)c3cccnc3NCc3ccncc3)cc2)CCCC1 [Apatinib, reference compound]

1: 5.8; 2: -1

Dear colleague, could you send me dTm LRRK2(KW) [K] for each of the items below? Thanks.
1. COc1cc2c(Nc3ccc(NC(=O)c4ccccc4)cc3)ncnc2cc1OCCCN1CCOCC1 [ZM447439, reference compound]
2. Cc1ccc(NC(=O)c2ccc(CN3CCN(C)CC3)cc2)cc1Nc1nccc(-c2cccnc2)n1 [Imatinib, reference compound]
3. Cc1ccc(NC(=O)c2ccc(CN3CCN(C)CC3)cc2)cc1Nc1nc(-c2cccnc2)cs1 [Masitinib, reference compound]
4. COc1cc2nccc(Oc3ccc(NC(=O)Nc4cc(C)on4)c(Cl)c3)c2cc1OC [Tivozanib (AV-951), reference compound]
5. CN1CCN(C2CCN(C(=O)Nc3cc(Oc4ccc(NC(=O)C5(C(=O)Nc6ccc(F)cc6)CC5)c(F)c4)ccn3)CC2)CC1 [Golvatinib, reference compound]

1. 6.5
2. 0
3. 0
4. 11.5
5. 0.5

Dear colleague, could you send me dTm LRRK2(KW) [K] for each of the items below? Thanks.
1. COC(=O)c1ccc2c(c1)NC(=O)/C2=C(\Nc1ccc(N(C)C(=O)CN2CCN(C)CC2)cc1)c1ccccc1 [Nintedanib, reference compound]
2. O=C(Nc1ccc(OC(F)(F)F)cc1)c1sccc1NCc1ccnc2ccccc12 [OSI-930, reference compound]
3. CC(C)(C)c1cc(NC(=O)Nc2ccc(-c3cn4c(n3)sc3cc(OCCN5CCOCC5)ccc34)cc2)no1 [Quizartinib, reference compound]

1. 5
2. 0
3. 3.5

The values you see were collected from paper PMC12136037.
